- Target Desc: NMDA receptors
- Experiment Description: [3H]CPP NMDA receptor binding assay
- Experimental Setup: [3H]CPP displacement
pIC50: −log10 of the molar value. Where a name gives a salt, the structure may show the parent alone.
Value Kind: pIC50

- Molecule: "O=C(O)CNCc1ccc(CP(=O)(O)O)cc1 [Example 8h, monohydrochloride]"
  Value Kind: "pIC50"
  Readout Value: 5.28
- Molecule: "O=C(O)CNCC=CCP(=O)(O)O [Example 8o, monohydrochloride]"
  Value Kind: "pIC50"
  Readout Value: 5.92
- Molecule: "O=C(O)CNCCC=CP(=O)(O)O (mixture of isomers) [Example 10a]"
  Value Kind: "pIC50"
  Readout Value: 5.61
- Molecule: "O=C(O)CNCc1cccc(CP(=O)(O)O)c1 [Example 8d, hydrochloride]"
  Value Kind: "pIC50"
  Readout Value: 5.65
